Tested on: FMOC25_1 (patient-derived low-grade serous ovarian cancer cells)
protocol_details: drug sensitivity score (DSS3, normalised partial AUC of % inhibition dose-response) (DSS (score)); higher = more sensitive (stronger inhibition of viability); extreme values may be limits of the assay
measurement_conditions: 72 h; library: FO4B; assay format: 2D, 384-well, CellTiter-Glo
Classify as follows. Reported drug sensitivity score greater than or equal to 10: met. Reported drug sensitivity score below: not met.

Use the examples below as a reference point.
| compound | tested_target | group |
| --- | --- | --- |
| Cn1nnc2c(C(N)=O)ncn2c1=O [Temozolomide] | FMOC25_1 | not met |
| CC(C)c1cc(-c2n[nH]c(=O)n2-c2ccc3c(ccn3C)c2)c(O)cc1O | FMOC25_1 | met |
| O=C(O)C(=O)O.[NH-][C@@H]1CCCC[C@H]1[NH-].[Pt+2] | FMOC25_1 | not met |

**Q:** Exam item: decide whether the reported drug sensitivity score for "O[C@H]1CC[C@H](Nc2ncc3nc(Nc4c(F)cc(F)cc4F)n([C@H]4CCOC4)c3n2)CC1" is at least 10.
**A:** not met

**Q:** Exam item: decide whether the reported drug sensitivity score for "CCN1CCN(c2ccc(Nc3cc(N(C)C(=O)Nc4c(Cl)c(OC)cc(OC)c4Cl)ncn3)cc2)CC1" is at least 10.
**A:** not met

**Q:** Exam item: decide whether the reported drug sensitivity score for "COc1ccc(-c2ccc3c(N4CCOC[C@@H]4C)nc(N4CCOC[C@@H]4C)nc3n2)cc1CO" is at least 10.
**A:** met

**Q:** Exam item: decide whether the reported drug sensitivity score for "CC[C@]1(O)C[C@@H]2CN(CCc3c([nH]c4ccccc34)[C@@](C(=O)OC)(c3cc4c(cc3OC)N(C)[C@H]3[C@@](O)(C(=O)OC)[C@H](OC(C)=O)[C@]5(CC)C=CCN6CC[C@]43[C@@H]65)C2)C1" is at least 10.
**A:** met

----------
System: FMOC09 (patient-derived high-grade serous ovarian cancer cells)
protocol_details: drug sensitivity score (DSS3, normalised partial AUC of % inhibition dose-response) (DSS (score)); higher = more sensitive (stronger inhibition of viability); extreme values may be limits of the assay
measurement_conditions: 72 h; library: FO5A; assay format: 2D, 384-well, CellTiter-Glo
Give measured drug sensitivity score for each item. Keep answers brief.
Give bare numbers.

Answered cases to consult:
| smiles_record | drug sensitivity score |
| --- | --- |
| CCN(CC)CCOc1ccc(C(=C(Cl)c2ccccc2)c2ccccc2)cc1 | 5 |
| Cn1cc(-c2cnn3c(N)c(Br)c([C@@H]4CCCNC4)nc23)cn1 | 0 |
| Cc1c(Cn2c(C)nc3c(C(=O)O)cc(N4CCOCC4)cc32)cccc1C(F)(F)F | 0 |

# next molecule below
**Q:** Return reported drug sensitivity score. Input molecule: "CN[C@@H](C)C(=O)N[C@H](C(=O)N1CCC[C@H]1c1nc(C(=O)c2ccc(F)cc2)cs1)C1CCCCC1"
**A:** 0

----------
Tested on: FMOC14 (patient-derived high-grade serous ovarian cancer cells)
protocol_details: drug sensitivity score (DSS3, normalised partial AUC of % inhibition dose-response) (DSS (score)); higher = more sensitive (stronger inhibition of viability); extreme values may be limits of the assay
measurement_conditions: 72 h; library: FO5A; assay format: 2D, 384-well, CellTiter-Glo
Give measured drug sensitivity score for each item. Keep answers brief.

Answered cases to consult:
| compound | tested_target | drug sensitivity score |
| --- | --- | --- |
| NC(=O)N1CCC(CC(=O)N2CCC([C@H]3c4ncc(Br)cc4CCc4cc(Cl)cc(Br)c43)CC2)CC1 [Lonafarnib] | FMOC14 | 10.3 |
| CO[C@@H]1[C@H](N(C)C(=O)c2ccccc2)C[C@H]2O[C@]1(C)n1c3ccccc3c3c4c(c5c6ccccc6n2c5c31)C(=O)NC4 [Midostaurin] | FMOC14 | 3 |
| N#Cc1ccc2[nH]c(O)c(-c3ccc(CN4CCOCC4)cn3)c2c1 [AZD-1080] | FMOC14 | 0 |
| COCCNCc1ccc(-c2cc3nccc(Oc4ccc(NC(=S)NC(=O)Cc5ccc(F)cc5)cc4F)c3s2)nc1 [Glesatinib] | FMOC14 | 0.2 |
| Nc1cccc2c1C(=O)N(C1CCC(=O)NC1=O)C2=O (centres undefined) [Pomalidomide] | FMOC14 | 0 |
| COc1cc2c(Nc3ccc(Cl)c(Cl)c3F)ncnc2cc1OC[C@@H]1C[C@@H]2CN(C)C[C@@H]2C1 [Tesevatinib] | FMOC14 | 6.5 |
| O=C(CCCCCCC(=O)Nc1ccccc1)NO [Vorinostat] | FMOC14 | 6.8 |
| Cn1c(Nc2ccc(C(F)(F)F)cc2)nc2cc(Oc3ccnc(-c4ncc(C(F)(F)F)[nH]4)c3)ccc21 [NVP-RAF265] | FMOC14 | 1.6 |
| Cc1ccc(NC(=O)c2ccc(CN3CCN(C)CC3)cc2)cc1Nc1nc(-c2cccnc2)cs1 [Masitinib] | FMOC14 | 5.4 |
| CC(C)Oc1ccc(-c2nn([C@@H](C)c3oc4ccc(F)cc4c(=O)c3-c3cccc(F)c3)c3ncnc(N)c23)cc1F [TGR-1202] | FMOC14 | 1.7 |

List drug sensitivity score for every entry below, keeping the order given.
1. Nc1nc2[nH]cnc2c(=S)[nH]1 [Thioguanine]
2. Cc1nc(Nc2ncc(C(=O)Nc3c(C)cccc3Cl)s2)cc(N2CCN(CCO)CC2)n1 [Dasatinib]
3. COCCNCc1ccc(-c2cc3nccc(Oc4ccc(NC(=O)C5(C(=O)Nc6ccc(F)cc6)CC5)cc4F)c3s2)nc1 [Sitravatinib]
4. O=C(O)c1ccc(CN2CCC(CN[C@@H]3C[C@H]3c3ccccc3)CC2)cc1

**A:**
1. 0
2. 5.1
3. 1.2
4. 0

List drug sensitivity score for every entry below, keeping the order given.
1. C[C@]1(c2nc3c(C(N)=O)cccc3[nH]2)CCCN1 [Veliparib]
2. Nc1nc2cc(-c3ccc4ncc(C(=O)N5CCOCC5)n4c3)ccc2o1 [Serabelisib]
3. CCn1c(=O)c(-c2ccc(Cl)cc2Cl)cc2cnc(Nc3ccc(N4CCNCC4)c(F)c3)nc21 [FRAX486]
4. Clc1ccc(Nc2nnc(Cc3ccncc3)c3ccccc23)cc1 [Vatalanib]
5. CCN(CC)Cc1ccc2cc(COC(=O)Nc3ccc(C(=O)NO)cc3)ccc2c1 [Givinostat]

**A:**
1. 0
2. 0.1
3. 0.2
4. 0
5. 4.4

List drug sensitivity score for every entry below, keeping the order given.
1. CNC(=O)c1ccc2cc([C@@]3(O)CCn4cncc43)ccc2c1 [Orteronel]
2. CN(C)C(=O)c1cc2cnc(Nc3ccc(N4CCNCC4)cn3)nc2n1C1CCCC1 [Ribociclib]
3. CCc1cncnc1N1CCN(Cc2nc3ccc(C(F)(F)F)cc3[nH]2)CC1
4. C1=N/C2=N/c3ccc(OCCN4CCCC4)c(c3)COC/C=C/COCc3cccc(c3)C(=C1)N2 [Pacritinib]
5. O=C1Cc2cc(C(=O)NC3C[C@H]4CC[C@@H](C3)N4S(=O)(=O)CC3CCN(CCCC(F)(F)F)CC3)c(Cl)cc2N1 (some centres undefined)

**A:**
1. 0
2. 0
3. 1.3
4. 5.2
5. 0

----------
System: FMOC25_1
protocol_details: drug sensitivity score (DSS3, normalised partial AUC of % inhibition dose-response) (DSS (score)); higher = more sensitive (stronger inhibition of viability); extreme values may be limits of the assay
measurement_conditions: 72 h; library: FO4B; assay format: 2D, 384-well, CellTiter-Glo
Classify as follows. Reported drug sensitivity score greater than or equal to 1: Met. Reported drug sensitivity score below: Not met.

**Q:** Exam item: decide whether the reported drug sensitivity score for "O=C(Nc1ccc(OC(F)(F)F)cc1)c1sccc1NCc1ccnc2ccccc12" is at least 1.
**A:** Not met

**Q:** Exam item: decide whether the reported drug sensitivity score for "C=CC(=O)N1CCC(Oc2cc3c(Nc4ccc(Cl)c(Cl)c4F)ncnc3cc2OC)CC1" is at least 1.
**A:** Met

**Q:** Exam item: decide whether the reported drug sensitivity score for "Cc1ncc(Cl)cc1NCc1ccc(C(=O)N[C@@H](CC2CCCC2)C(=O)NC2CC2)s1" is at least 1.
**A:** Not met

**Q:** Exam item: decide whether the reported drug sensitivity score for "O=C(CCCCCCNC(=O)c1cnc(N(c2ccccc2)c2ccccc2)nc1)NO" is at least 1.
**A:** Met

**Q:** Exam item: decide whether the reported drug sensitivity score for "Cn1c(=O)c(F)c(Nc2ccc(I)cc2F)c2c(=O)n(C[C@@H](O)CO)cnc21" is at least 1.
**A:** Met

----------
Tested on: FMOC02_2 (patient-derived low-grade serous ovarian cancer cells)
protocol_details: drug sensitivity score (DSS3, normalised partial AUC of % inhibition dose-response) (DSS (score)); higher = more sensitive (stronger inhibition of viability); extreme values may be limits of the assay
measurement_conditions: 72 h; library: FO5A; assay format: 2D, 384-well, CellTiter-Glo
endpoint: drug sensitivity score
Give bare numbers.

Answered cases to consult:
| smiles_record | drug sensitivity score |
| --- | --- |
| COc1cccc2c1C(=O)c1c(O)c3c(c(O)c1C2=O)C[C@@](O)(C(=O)CO)C[C@@H]3O[C@H]1C[C@H](N)[C@H](O)[C@H](C)O1 | 2.9 |
| Cn1ncc(Cl)c1-c1cc(C(=O)N[C@H](CN)Cc2cccc(F)c2)sc1Cl | 6.6 |
| CN(C)C[C@@H]1CCn2cc(c3ccccc32)C2=C(C(=O)NC2=O)c2cn(c3ccccc23)CCO1 | 9.7 |

List drug sensitivity score for every entry below, keeping the order given.
1. Cn1cnc2c(F)c(Nc3ccc(Br)cc3F)c(C(=O)NOCCO)cc21
2. CCN(CC)CCNC(=O)c1c(C)[nH]c(/C=C2\C(=O)Nc3ccc(-c4csc(-c5ccccc5)n4)cc32)c1C

**A:**
[7.1, 1.6]
